System: rat circulatory organ (blood pressure and heart rate)
Assay: Rat po circulatory organ evaluation test (blood pressure and heart rate)
Conditions: rat no observed effect level compared with the effective amount in the mouse model of DSS-induced colitis

- Molecule: "O=C(NCCS(=O)(=O)O)c1csc(SCCN2C(=O)CC[C@@H]2/C=C/[C@@H](O)CCCCCSc2ccccn2)n1 [Example 11]"
  Units label: "times"
  safety margin (dose basis): 100
- Molecule: "CN(CCCCC[C@H](O)/C=C/[C@H]1CCC(=O)N1CCSc1nc(C(=O)NCCS(=O)(=O)O)cs1)c1ccccc1"
  Units label: "times"
  safety margin (dose basis): 100
- Molecule: "COc1nccnc1SCCCCC[C@H](O)/C=C/[C@H]1CCC(=O)N1CCSc1nc(C(=O)NCCS(=O)(=O)O)cs1 [Example 12]"
  Units label: "times"
  safety margin (dose basis): 10
- Molecule: "O=C(CCCSCCN1C(=O)CC[C@@H]1/C=C/[C@@H](O)Cc1cccc(NC(=O)c2ccccc2)c1)NCCS(=O)(=O)O"
  Units label: "times"
  safety margin (dose basis): 10
